SUBJECT_OF_TEST: T1, human CD81 on CD81-expressing cells (Jurkat E6.1, human PBMC, Ramos) (human, UniProt P60033 1-236)
T1 sequence: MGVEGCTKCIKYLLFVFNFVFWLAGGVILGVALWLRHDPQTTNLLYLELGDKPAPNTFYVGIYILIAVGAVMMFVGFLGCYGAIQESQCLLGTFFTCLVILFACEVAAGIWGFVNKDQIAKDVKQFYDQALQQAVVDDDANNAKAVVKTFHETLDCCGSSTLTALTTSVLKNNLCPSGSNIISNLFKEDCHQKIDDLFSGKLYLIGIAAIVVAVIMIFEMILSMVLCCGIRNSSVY
ASSAY_NOTES: cell-based or functional assay
METRIC: Jurkat chemotaxis (% of control IgG4) at 0.001 µg/mL (%)

- BINDER: "002-B07 (antibody, human IgG4 S228P, lambda, V domains shown, IgG4 S228P) VH: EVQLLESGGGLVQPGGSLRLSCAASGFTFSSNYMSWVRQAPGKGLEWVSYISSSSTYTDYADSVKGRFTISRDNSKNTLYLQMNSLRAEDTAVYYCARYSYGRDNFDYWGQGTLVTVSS VL: QSVLTQPSSASGTPGQRVTISCTGSTSNIGAGYDTHWYQQLPGTAPKLLIYGNSNRPSGVPDRFSGSKSGTSASLAISGLRSEDEADYYCQSYDTNLSGWVFGGGTKLTVLG"
  ASSAY_VALUE: 92
- BINDER: "003-D07 (antibody, human IgG4 S228P, lambda, V domains shown, IgG4 S228P) VH: EVQLLESGGGLVQPGGSLRLSCAASGFTFSSNYMSWVRQAPGKGLEWVSYISSSSTYTDYADSVKGRFTISRDNSKNTLYLQMNSLRAEDTAVYYCARYSYDRDNFDYWGQGTLVTVSS VL: QSVLTQPFSASGTPGQRVTISCTGSTSNIGAGYDTHWYQHLPGTAPKLLIYGNSNRPSGVPDRFSGSKSGTSASLAISGLRSEDEADYYCQSYDTNLSVWVFGGGTKLTVLG"
  ASSAY_VALUE: 87
- BINDER: "003-F08 (antibody, human IgG4 S228P, lambda, V domains shown, IgG4 S228P) VH: EVQLLESGGGLVQPGGSLRLSCAASGFTFSSNYMSWVRQAPGKGPEWVSYISSSSTYADYADSVKGRFTISRDNSKNTLYLQMNSLRAEDTAVYYCARYSYGRDNFDYWGQGTLVTVSS VL: QSVLTQPSSASGTPGQRVTISCTGSTSNIGAGYDTHWYQQLPGTAPKLLIYGNSNRPSGVPDRFSGSKSGTSASLAISGLRSEDEADYYCQSYDTNLSAWVFGGGTKLTVLG"
  ASSAY_VALUE: 80
- BINDER: "002-C02 (antibody, human IgG4 S228P, lambda, V domains shown, IgG4 S228P) VH: EVQLLESGGGLVQPGGSLRLSCAASGFTFSSNYMSWVRQAPGKGLEWVSYISSSSSYTDYADTVKGRFTISRDNSKNTLYLQMNSLRAEDTAVYYCASYSYGRDSFDYWGQGTLVTVSS VL: QSVLTQPPSASGTPGQRVTISCTGSTSNIGAGYDTHWYQQLPGTAPKLLIYGNSNRPSGVPDRFSGSKSGTSASLAISGLRTEDEADYYCQSYDTNLSVWVFGGGTKLTVLG"
  ASSAY_VALUE: 106
- BINDER: "002-A07 S115N (antibody, human IgG4 S228P, lambda, V domains shown, IgG4 S228P; glycosylation site mutant of 002-A07 VL) VH: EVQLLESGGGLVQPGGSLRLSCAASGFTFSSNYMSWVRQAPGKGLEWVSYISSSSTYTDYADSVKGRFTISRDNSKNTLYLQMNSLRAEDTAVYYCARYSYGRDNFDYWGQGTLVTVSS VL: QSVLTQPPSASGTPGQRVTISCTGSTSNIGAGYDTHWYQQLPGTAPKLLIYGNSNRPSGVPDRFSGSKSGTSASLAISGLRSEDEADYYCQSYDTNLNVWVFGGGTKLTVLG"
  ASSAY_VALUE: 79
